B1: FAM9B (parent)
chain: EDLTAKRKRMKMDKTCSKTKNKSK

- Variants of: B1
- Method notes: protein stability index of a GFP-peptide fusion (GPS, HEK-293T) (PSI 1-6); higher = more stable;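 also: lentivirally expressed fusions sorted by FACS into six bins by GFP to DsRed ratio, PSI derived from sequencing read proportions per bin multiplied by bin number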
- Measurement conditions: c terminus: a fixed tail appended
Assign YES to entries whose protein stability index meets or exceeds 5; assign NO to the rest.

>  <Mutation id>
K6Y

>  <Class label>
YES

$$$$
>  <Mutation id>
K24W

>  <Class label>
NO

$$$$
>  <Mutation id>
L3V

>  <Class label>
YES

$$$$
>  <Mutation id>
T4Q

>  <Class label>
NO

$$$$
>  <Mutation id>
K8N

>  <Class label>
YES

$$$$
>  <Mutation id>
M10G

>  <Class label>
NO

$$$$
>  <Mutation id>
D13H

>  <Class label>
NO

$$$$
>  <Mutation id>
R7P

>  <Class label>
YES

$$$$
>  <Mutation id>
K18M

>  <Class label>
NO

$$$$
